assay: supercomplex reporter luminescence per Hoechst cell count – Hoechst nuclei count (AID 1645838); conditions: Cells, luminescence/Hoechst cell count ratio, library stock concentration (final well concentration not given) 278 uM;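 note: control cybrid cells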;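 for z-score: higher means more mitochondrial supercomplex formation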
Hit rate of the full screen: of about 2,000 compounds, about 100 (5%) were called active. Cut-off read from the data, not from the text of the source: active = z-score above about 2; inactive = the rest. Shown is part of a subset that was picked to be rich in actives.
Assign a class; possible classes are active, inactive

Solved cases below.
CN1CCN(c2ccc(Nc3c4ccccc4nc4ccccc34)cc2)CC1; inactive
Cc1nc(Nc2ncc(C(=O)Nc3c(C)cccc3Cl)s2)cc(N2CCN(CCO)CC2)n1; inactive
COc1ccccc1Oc1ccc(N(Cc2cccnc2)S(=O)(=O)CC(F)(F)F)cc1; inactive
CC(C)c1ccccc1OC(=O)NCCc1ccc2ccccc2c1; inactive
C=CCn1c(=O)c2cnc(Nc3ccc(N4CCN(C)CC4)cc3)nc2n1-c1cccc(C(C)(C)O)n1; inactive

Write down the call the test reported for this compound. Item: NS(=O)(=O)OCC1CC(n2ccc3c(NC4CCc5ccccc54)ncnc32)CC1O (stereo unspecified)
active

----------
# key: entry, value: z-score
assay: supercomplex reporter luminescence per Hoechst cell count – Hoechst nuclei count (AID 1645838); conditions: Cells, luminescence/Hoechst cell count ratio, library stock concentration (final well concentration not given) 400 uM, stronger effect = higher value;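 note: control cybrid cells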;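 for z-score: higher means more mitochondrial supercomplex formation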
Screen size: about 2,000 compounds; about 100 (5%) were called active. Many of the other results were omitted from the sample, so actives are more common in it than they were.
API doc: respond with a numeric literal and nothing else, no unit.

Use these answered entries as a reference point.
CNC(=O)c1ccccc1Nc1nc(Nc2ccc(N3CCOCC3)cc2OC)ncc1Cl; -0.00453
NC(N)=NN=Cc1ccc(Cl)c(Cl)c1; 0.196

Field: next compound
May I ask what z-score has been recorded for O=C(Nc1cccc(Nc2ncc(Br)c(NCCc3cnc[nH]3)n2)c1)N1CCCC1 ?
-0.129

----------
assay: supercomplex reporter luminescence per Hoechst cell count – Hoechst nuclei count (AID 1645838); settings: Cells, luminescence/Hoechst cell count ratio, measured here: cell number, Hoechst nuclei count, library stock concentration (final well concentration not given) 2 mM;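 note: control cybrid cells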
Out of some 2,000 compounds screened, about 100 (5%) were called active. The entries come from a sample that favours actives as a whole.
Value type: cell count
# print the numeric value only

CCC(=C(CC)c1ccc(O)cc1)c1ccc(O)cc1; 5930
Cn1c(SCC(=O)N2CCCC2C(=O)Nc2ccccc2-c2ccccc2)nc2ccccc21 (configuration not stated); 5780
O=C(Nc1cccc(Nc2ncc(Br)c(NCCc3cnc[nH]3)n2)c1)N1CCCC1; 3760

// cell count lookup, key: CC1CN(CC(=O)Nc2ccc3c(c2)Cc2cccc(-c4cc(=O)cc(N5CCOCC5)o4)c2S3)CC(C)O1 (configuration not stated)
4680

Record request: cell count value, item COC1C[C@@H]2CCC(C)[C@@](O)(O2)C(=O)C(=O)N2CCCC[C@@H]2C(=O)O[C@@H](C(C)CC2CCC(n3cnnn3)C(OC)C2)CC(=O)C(C)C=C(C)C(O)C(OC)C(=O)C(C)CC(C)C=CC=CC=C1C (some centres not stated)
4240

Need cell count, item CCCC(=O)Nc1nc(-c2ccccc2)cc(-c2ccccc2)n1
4980

I am curious: what cell count value has been reported for CCCNC1CCc2nc(N)sc2C1 (configuration not stated) ?
6830

----------
test: supercomplex reporter luminescence per Hoechst cell count – Hoechst nuclei count (AID 1645838); settings: Cells, luminescence/Hoechst cell count ratio, measured here: cell number, Hoechst nuclei count, library stock concentration (final well concentration not given) 80 uM;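 note: control cybrid cells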
Among all 2,000 compounds or so, about 100 (5%) were called active. The entries come from a sample that favours actives as a whole.
Value type: cell count
Reply: number alone, nothing else.

Example results:
COc1cc(N2CCC(C(N)=O)CC2)ccc1Nc1nc(N)c(Cl)c(Nc2ccccc2S(=O)(=O)C(C)C)n1; 5060
CCOc1ccc(-n2c(C(C)N(Cc3cccnc3)C(=O)Cc3ccc(OC(F)(F)F)cc3)nc3ncccc3c2=O)cc1 (centres undefined); 4950
CCCC(NC(C)C(=O)N1C(C(=O)O)C[C@H]2CCCC[C@@H]21)C(=O)OCC (some centres undefined); 5070

Lab note: next compound to report on.
Value lookup for cell count; key = CCCCCC(=O)Nc1c(C)cc(Br)cc1C
4910

----------
test: supercomplex reporter luminescence per Hoechst cell count – Hoechst nuclei count (AID 1645838); details: Cells, luminescence/Hoechst cell count ratio, stronger effect = higher value;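 note: control cybrid cells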;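 for z-score: higher means more mitochondrial supercomplex formation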
Hit rate of the full screen: of about 2,000 compounds, about 100 (5%) were called active. Shown is part of a subset that was picked to be rich in actives.
z-score listing for selected compounds.
Give the value as a plain number.

As a guide, the following entries are already answered.
O=C1C[C@@H]2[C@@H](/C=C/[C@@H](O)COc3cccc(C(F)(F)F)c3)[C@H](O)C[C@@H]2O1; 0.782
C=C1C[C@H](O)[C@H](C/C=C\CCCC(=O)O)[C@H]1/C=C/[C@@H](O)CCCCC; -0.218
CCCCC[C@H](O)/C=C/[C@@H]1[C@@H](C/C=C\CCCCOC)[C@@H](O)C[C@H]1O; -0.514
Nc1nc2c([nH]c(=O)n2[C@@H]2O[C@H](CO)[C@@H](O)[C@H]2O)c(=O)[nH]1; -0.949
COc1ccc(/C=C/C(=O)Nc2c(O)cccc2C(=O)O)cc1OC; -0.476
c1ccc2c(Oc3nc(Nc4ccc(N5CCOCC5)cc4)c4ncn(C5CCCCC5)c4n3)cccc2c1; -0.437
O=C(O)CCC/C=C\C[C@H]1[C@@H](/C=C/[C@@H](O)CCc2ccccc2)[C@H](O)C[C@@H]1O; -0.319
Cc1ccc(NC(=O)CCCCCC(=O)Nc2ccccc2N)cc1; 1.29
CCCCC[C@H](O)/C=C/[C@H]1CCC(=O)[C@@H]1C/C=C\CCCC(=O)O; 0.602
O=C(O)CCC/C=C\C[C@@H]1C(=O)C[C@@H](O)[C@@H]1/C=C/[C@@H](O)CCc1ccccc1; 0.113

Value lookup for z-score; key = CC(C)(C)n1nc(Cc2cccc3ccccc23)c2c(N)ncnc21
-0.348

Param item = CCCCCCCCC#CCCCCCCCC(=O)c1nc2ncccc2o1 ; retrieve measured z-score.
-0.992

Which value of z-score has been reported for Oc1ccc(Nc2nc(-c3ccc(Cl)cc3)cs2)cc1 in the records?
-0.695

// lookup z-score for Nc1nc2c([nH]c(=O)n2[C@H]2C[C@H](O)[C@@H](CO)O2)c(=O)[nH]1
-0.23

Which measured z-score value corresponds to CCCCCCCC/C=C\CCCCCCCC(=O)NCCS(=O)(=O)O ?
-0.251

Reported z-score for CCCCC/C=C\CCCCCCCCCCCCC(=O)O : what is it?
-0.87

Give the measured z-score of NCc1cccc2ccncc12 .
-0.00644

Using the record for Cc1cccc(Nc2nc(-c3ccncc3)cs2)c1 , report its z-score.
-0.555

z-score lookup needed for CCOC(=O)c1c(Cc2cccc(Cl)c2)[nH]c2c1cc(O)c1ccccc12 , thanks.
0.267

For CCCCCC(=O)CC[C@H]1[C@H](O)CC(=O)[C@@H]1CCCCCCC(=O)O , what is its reported z-score?
3.62

Requested field: z-score. Item: CN(C)c1ccc(C(=O)NCCCCCCC(=O)NO)cc1
6.25

Could you share which z-score value was measured for CCCCC/C=C/C=C1/C=CC(=O)[C@@H]1CCCCCCC(=O)O ?
-0.804

Fill blank: measured z-score of the compound CCCCC[C@H](O)/C=C/[C@H]1CC[C@@H](O)[C@@H]1C/C=C\CCCC(=O)O is ____.
-0.672

----------
test: supercomplex reporter luminescence per Hoechst cell count – Hoechst nuclei count (AID 1645838); conditions: Cells, luminescence/Hoechst cell count ratio, measured here: cell number, Hoechst nuclei count, library stock concentration (final well concentration not given) 10 mM;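 note: control cybrid cells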
Among all 2,000 compounds or so, about 100 (5%) were called active. The list comes from a sample in which actives are over-represented; it also holds close analogues and randomly drawn compounds.
Value type: cell count
Answer with a bare number; do not write a unit.

CC(=O)Nc1ccc(C(=O)Nc2sc(Nc3ccccc3)nc2C(N)=O)cc1; 2950
COc1cc(Cc2cnc(N)nc2N)c2c(c1OC)OC(C1CC1)C=C2 (stereo not given); 4960
O=C1C(Cc2ccc(O)cc2)N2C(=O)CCN(C(=O)NCc3ccccc3)C2CN1Cc1cccc2ccccc12 (stereo not given); 4220
Cc1ccc(C)c(-n2sc3cc(F)ccc3c2=O)c1; 2660
COc1ccc(C(=O)Nc2sc(Nc3ccccc3)nc2C(N)=O)cc1; 4300

What value of cell count has been recorded for this entry: Cc1ccc(-c2nn(C(C)(C)C)c3ncnc(N)c23)cc1
4640

Recorded cell count for Cc1cc(N2CCOCC2)cc2[nH]c(-c3c(NCC(O)c4cccc(Cl)c4)cc[nH]c3=O)nc12 (stereo not given) , please?
1770

For the molecule CCCC(NC(C)C(=O)N1C(C(=O)O)C[C@H]2CCCC[C@@H]21)C(=O)OCC (stereo not given in full) , what cell count is on record?
5340

Which cell count reading was recorded for the molecule CC(C)(C)C(O)C=Cc1ccc2c(c1)OCO2 (stereo not given) ?
5260

Given the entry Cn1cc(-c2ccc3c(c2)CCN3C(=O)Cc2cccc(C(F)(F)F)c2)c2c(N)ncnc21 , report its measured cell count.
4040
